# Test system: isolated left atria
# test: functional refractory period (FRP) and contraction force (CF) in isolated left atria, double stimulus method of Govier
# Parameters: species or system female guinea pigs
# experimentalConditions: Cavia porcellus, 0.3 h; isolated left atria of guinea pig, 18 minutes after application; read-out: concentration reducing contraction force (CF) to 75% of starting value
Counter-ions that a name gives are not always drawn.
Form field: IC25 (one value per entry).
Kindly provide the numeric value in nM only, without the unit symbol.

* CCC[N+]12C(O)C(CC)C3CC1C1N(C)c4ccc(Br)cc4C14CC2C3C4O (stereo not shown) | 1500
* CCC[N+]12C(O)C(CC)C3CC1C1N(C)c4ccccc4C14CC2C3C4O (stereo not shown) [Neo-Gilurytmal, Nb -propyl ajmalinium hydrogen tartrate, reference compound] | 260
* CCC1C2CC3C4N(C)c5ccc(Br)cc5C45CC(C2C5O)[N+]3(CCN2CCOCC2)C1O (stereo not shown) | 2100

Continue with the next compound.
For CCCC[N+]12C(O)C(CC)C3CC1C1N(C)c4ccc(Br)cc4C14CC2C3C4O (stereo not shown) the compound record lists IC25 as 1500
